readoutLabel: melting point

• CN(C)c1cccc2c(S(=O)(=O)Nc3ncc(Cl)cc3Cl)cccc12 = 161 to 163 °C
• CCOC(=O)C1=C(O)c2ccccc2N(c2ccccc2)C1 = 103 to 106 °C
• CCN(CC)C(=O)Oc1cc(-c2cccc(Cl)c2)nc2ccccc12 = 83 °C
• CSc1nc(-c2ccccn2)n(-c2ccc(C)cc2)c(=O)c1C#N = 247 to 248 °C
• N=C(N)Nc1ncc(CSCCN)s1 = 150 to 153 °C
• COc1ccc(S(=O)(=O)C2(C(=O)NO)CCN(Cc3ccc(OCCN4CCCCC4)cc3)CC2)cc1 = 114 °C
• CCCn1c(=O)c2c(NC)n[nH]c2n(Cc2ccc(Br)cc2)c1=O = 308 to 310 °C
• COc1ccc(Cn2cc(C(=O)O)c(=O)c3ccc(N4CCNCC4)cc32)cc1 = 230 to 235 °C
• N#CCCN(CCC#N)CCN(CCC#N)CCC#N = 63 to 65 °C
• Cc1ccc(-n2nc(O)c3[nH]c4cc(Cl)ccc4c(=O)c3c2=O)cc1 = 368 to 370 °C
• O=[N+]([O-])C(F)(CCc1nnc(C(F)(F)C(F)(F)F)o1)[N+](=O)[O-] = 3 to 5 °C
• CCOC(=O)Cc1c(C(=O)OCC)c(O)c(C(=O)c2ccc(Cl)cc2)n1C = 145 to 147 °C
• O=C(Nc1ccc(-c2ncon2)cc1)Oc1ccccc1 = 157 to 158 °C
• O=c1oc2cc(Cl)cnc2n1CCl = 105 to 107 °C
• CN(C)C=Nc1ncc(I)c(Cl)n1 = 99 to 100 °C
• CC(C)c1cc2c(cc1CSCC(=O)O)OCO2 = 83 to 84 °C
• O=C(Nc1cccc2c(=O)cc(C(=O)O)oc12)c1ccc2oc(COCc3ccccc3)cc2c1 = 215 to 218 °C
• CC(C)(C)OC(=O)N1CCn2c(C#N)c(-c3cccc(F)c3)c(C(N)=O)c2C1 = 208 to 210 °C
• Cc1nc2c(Br)cnn2c(Cl)c1CCCl = 128 to 130 °C
• CCCCc1nc(Cl)c(CC#N)n1Cc1ccc([N+](=O)[O-])cc1 = 118 to 121 °C
• O=C(O)CCCCc1ccc(CCNS(=O)(=O)c2ccc(Cl)cc2)cc1 = 118 to 120 °C

###

Below is a list of entries, each paired with its recorded melting point value.
readoutLabel: melting point

- Cc1cc(OC(=O)c2ccc(Cl)cc2)n(C)n1: 100 to 101 °C
- O=c1nc(-c2cccc(CO)n2)sc2ccccc12: 208 to 209 °C
- CCN1CCN(Cc2ccc(-c3cc4ncc(C#N)c(Nc5cc(OC)c(Cl)cc5Cl)c4cc3OC)cc2)CC1: 126 to 130 °C
- OC1(c2cccc(Cl)c2)C2=NCCCN2c2ccccc21 (configuration not stated): 186 to 187 °C
- CCOC(=O)c1ccc(/C=C/C2CCCN2C(=O)OC(C)(C)C)cc1 (configuration not stated): 68 to 70 °C
- Cc1cn(-c2cccc(OS(N)(=O)=O)c2)cn1: 202 to 204 °C
- Cc1ccc(CSC2=C(O)CC(C)(C)CC2=O)cc1: 100 to 102 °C
- CC1CC2CCC=C3C=C(Cl)NCC1=C32 (configuration not stated): 279 to 281 °C
- Nc1ccc(-n2ncnc2-c2ccccc2)cc1: 161 to 163 °C
- CC1(C)CC(=O)C(C(=O)Nc2cccc(Cl)c2)C(=O)C1: 89 to 91 °C
- N#CC(C(=O)C(F)(F)C(F)(F)F)c1ccccc1 (configuration not stated): 94 to 95 °C
- CC(C)Cn1c(CN2CCCS2(=O)=O)nc2c(N)nc3c(c21)CCCC3: 200 to 203 °C
- CCOC(=O)c1ccc(/C=C(\C)c2ccc(OC)c(C3(C)CCCCC3)c2)cc1: 60 to 62 °C
- FC(F)c1ccc2c(c1)C(Cc1ccncc1)(Cc1ccncc1)c1ccccc1-2: > 300 °C
- CCOC(=O)c1cc2ccccc2n1Cc1ccc(Cl)cc1: 107 to 108 °C
- CC(O)(c1ccccc1)c1cc(Cl)ccc1N (configuration not stated): 93 to 94 °C
- O=C(O)Cc1cccc2ccoc12: 115 to 118 °C
- COC(=O)c1cc(C)c(-c2cccc(O)c2C)c(C)c1: 149 °C
- CCN1C(=O)C(C(=O)Nc2ccc(F)cc2F)c2cc(C(C)=O)ccc21 (configuration not stated): 160 to 161 °C
- NC(N)=NC(=O)Cc1c(-c2ccccc2Cl)csc1-c1ccc(OCCc2cn[nH]c2)cc1: 71 to 72 °C
- N#Cc1cnc2cc(-c3cncc(CN4CCOCC4)c3)ccc2c1Nc1ccc(Oc2ccccc2)cc1: 185 to 187 °C
- CC(C)(C)c1cc(-c2n[nH]c(=S)o2)cc(C(C)(C)C)c1O: 254 °C

###

Listed next: entries and their corresponding melting point.
readoutLabel: melting point

* Nc1ccc2oc([N+](=O)[O-])c(-c3ccccc3)c2c1 | 125 to 127 °C
* CC(=O)c1ccc(Br)c(S(=O)(=O)Cl)c1 | 107 °C
* O=[N+]([O-])c1ccc(NCc2ccccc2)c([N+](=O)[O-])c1 | 106 °C
* O=C(C=Cc1ccc2c(c1)OCO2)c1cccc(OCCCCCBr)c1 | 87 to 88 °C
* Cc1cc([N+](=O)[O-])cc(N)c1[N+](=O)[O-] | 125 to 127 °C
* Brc1ccc2scc(Br)c2c1 | 95 to 97 °C
* COc1cc(C(=O)Nc2cc(Oc3ccc4nc(NC(=O)C5CC5)cn4n3)ccc2C)n(C)n1 | 224 °C
* O=C(Cc1c(-c2ccccc2)c2cc(CN3CCOCC3)c(Cl)cc2oc1=O)Nc1ccc(Cl)cc1C(F)(F)F | 205 to 207 °C
* O=c1cc(C(F)(F)F)c2ccc(N3CCOCC3)nc2o1 | 218 to 220 °C
* Cc1cc(CCCCCOc2c(Cl)cc(-c3nnc(C)o3)cc2Cl)on1 | 71 to 72 °C

###

Measured melting point accompanies every entry in the list below.
readoutLabel: melting point

- CCCCc1nc(Cl)c(C=O)n1Cc1ccc(-c2ccccc2-c2n[nH]c(=O)o2)cc1: 178 to 179 °C
- COc1cc2c(cc1[N+](=O)[O-])CCN(CCCCl)C(=O)C2: 127 to 128 °C
- CN(C)C(=O)c1ccc(-c2ccc(Cl)cc2)o1: 101 to 102 °C
- CCN(CC)CC(O)CNC(=O)Cn1ncc(-c2ccccc2)c1-c1ccccc1 (stereo not given): 70 to 72 °C
- C1=CCC(C2CCCCCCC2)N=NC(C2CCCCCCC2)CC=CCC1 (stereo not given): 62 to 63 °C
- O=S(=O)(Nc1ccc2c(OCc3ccc(-c4ccc(Cl)cc4)cc3F)cccc2c1)C(F)(F)F: 151 to 153 °C
- CCNC(=O)Nc1nc2cc(-c3cncnc3)cc(C(=O)NCC)n2n1: 317 to 321 °C
- COC(=O)C1=CCC2=Nc3ccccc3C2=C1C(=O)OC: 219 °C
- COCC(=O)C(=NNc1ccc(I)cc1F)C(=O)OC: 141 to 146 °C
- CCN(CC)CCOc1ccc(C#Cc2ccc(OC)cc2)cc1: 59 to 60 °C

###

readoutLabel: melting point

• Cn1nc(-c2c(F)cccc2Cl)nc1-c1sc(Br)c(Cl)c1Cl = 178 to 180 °C
• CN(C)C(=S)SSCCSSC(=S)N(C)C = 142 to 143 °C
• Cc1oc(-c2ccc(F)cc2)nc1COc1cccc(Cn2oc(=O)[nH]c2=O)c1 = 163 to 164 °C
• Cc1nc(-n2cc(CCCc3ccccc3)nn2)sc1C(=O)NCc1ccccc1 = 94 to 97 °C
• CCCn1c(COCC)nc2c(N)nc3ccc(OCC4CCCO4)cc3c21 (stereo not given) = 178 to 179 °C
• COc1ccccc1Oc1cccc2c1NC(=O)C2 = 145 to 147 °C
• C#CCOc1cc(Cl)ccc1-n1c(=O)cc(C(F)(F)F)n(C)c1=O = 147 to 148 °C
• CCCCNC(=O)C(C)CC(O)C1C[C@H](C)CCCCCCNc2cc(cc(OC)n2)C(=O)N1 (stereo not given in full) = 178 to 182 °C
• O=Cc1scc2c1-c1cccc3cccc-2c13 = 123 to 126 °C
• CC(C)CCSc1cccc(-c2nc(=O)c3ccccc3s2)n1 = 103 to 105 °C

###

readoutLabel: melting point

- Cc1cc(N(C)C)c2c(N)c(C(N)=O)sc2n1: 167 to 170 °C
- C=CCONC(CCC)=C1C(=O)C=C(C)OC1=O: 52 to 54 °C
- CCN(CC)CCOc1ccc(Nc2ncc3c(n2)N(C)C(=O)N(c2ccccc2)C3)cc1: 141 to 144 °C
- Cn1cc(-c2ccccc2)c(=O)c(-c2c(Cl)cccc2Cl)c1: 223 to 226 °C
- O=C1Nc2ccc(Br)cc2C2(CCCC2)O1: 180 to 185 °C
- CCOC(C)=C(C#N)C(=O)Nc1ccccc1C: 179 to 181 °C
- COC(=O)c1c(N(CC(C)C)CC(C)C)cccc1S(=O)(=O)NC(=O)Nc1nc(OC)cc(OC)n1: 166 to 167 °C
- CSc1nc(=O)n(-c2ccccc2F)c(=O)[nH]1: 196 to 199 °C
- C=C(CC1(C)C(=O)c2ccc(Cl)cc2C1=O)c1cccc(Cl)n1 (stereo unspecified): 72 to 73 °C
- O=Cc1ccc(O)cn1: 134 to 135 °C
- COc1ccc(CC(=O)O)c(OCCc2ccccc2)c1: 107 to 108 °C
